Measured pIC50 of individual entries
Target: Beta-secretase 1 (Homo sapiens)
Test: Inhibition of BACE1 (unknown origin) incubated for 120 mins using APP swedish mutant as substrate by FRET assay
Remember the convention: pIC50 equals -log10 of concentration in molar.

Example cases with answers are listed next.
>>> observed_measurement("C[C@H]1OC[C@]2(c3cc(NC(=O)c4ccc(C#N)cn4)ccc3F)N=C(N)[C@](C)(C#N)C[C@H]12")
8.73
>>> observed_measurement("COc1ccc(C(=O)Nc2ccc(F)c([C@]3(C)CC[C@@](C)(C#N)C(N)=N3)c2)nc1")
8.01

Query: Sample "C[C@@]1(S(C)(=O)=O)CC[C@@](CF)(c2cc(NC(=O)c3ccc(OCF)cn3)ccc2F)N=C1N" — what was its pIC50?
Reply: 8.66

###

Molecular target: UniProt:P56817
Assay: Inhibition of human BACE1 using biotin-XSEVNLDAEFRHDSGC-Eu as substrate incubated for 3 hrs by fluorescence method
Measurement kind: pIC50
Scale for pIC50: -log10 of concentration given in mol/L; no unit attached.

Query: Look at this compound and give its reported pIC50. CC#CC(=O)Nc1ccc(F)c(C2(C)Cc3c(F)cncc3C(N)=N2)c1 (stereo unspecified)
Reply: 7.27

###

Target: Beta-secretase 1 (Homo sapiens, UniProt P56817)
Sequence (P56817 whole entry, the tested form may be a part): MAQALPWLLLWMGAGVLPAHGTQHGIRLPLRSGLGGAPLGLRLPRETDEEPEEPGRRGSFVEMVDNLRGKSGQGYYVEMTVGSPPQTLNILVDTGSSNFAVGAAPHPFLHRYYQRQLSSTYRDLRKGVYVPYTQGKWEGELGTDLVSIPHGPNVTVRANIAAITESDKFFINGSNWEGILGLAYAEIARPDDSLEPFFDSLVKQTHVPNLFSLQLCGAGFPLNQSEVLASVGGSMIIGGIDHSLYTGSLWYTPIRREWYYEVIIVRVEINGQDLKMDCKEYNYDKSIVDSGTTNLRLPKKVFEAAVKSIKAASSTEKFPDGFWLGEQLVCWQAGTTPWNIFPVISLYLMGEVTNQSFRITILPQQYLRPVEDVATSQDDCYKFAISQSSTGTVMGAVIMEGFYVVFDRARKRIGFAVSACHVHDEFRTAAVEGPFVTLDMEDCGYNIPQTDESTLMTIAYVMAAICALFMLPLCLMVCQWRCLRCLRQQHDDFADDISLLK
Experiment: Inhibition of BACE1 in human SK-N-BE(2) cells expressing human APP695 assessed as reduction in amyloidbeta (1 to 42 residues) level incubated for 18 hrs by sandwich ELISA
Assay type: cell-based
Measurement kind: pIC50
Kindly note that pIC50 refers to -log10 of the concentration in mol/L and answer with the value alone.

Below are worked cases with known answers.
>>> observed_measurement("COc1ccc(C(=O)Nc2ccc(F)c([C@]3(C)CC[C@@](C)(C#N)C(N)=N3)c2)nc1")
8.16
>>> observed_measurement("C[C@H]1OC[C@]2(c3cc(NC(=O)c4ccc(C#N)cn4)ccc3F)N=C(N)[C@](C)(C#N)C[C@H]12")
8.90

Query: # query: pIC50 | item "C[C@@]1(S(C)(=O)=O)CC[C@@](CF)(c2cc(NC(=O)c3ccc(OCF)cn3)ccc2F)N=C1N" | system: Beta-secretase 1 (Homo sapiens, UniProt P56817)
Reply: 8.80

###

Molecular target: Beta-secretase 1 (Homo sapiens, UniProt P56817)
Assay: Inhibition of BACE1 (unknown origin) expressed in CHO-K1 cells using Biotin-GLTNIKTEEISEISYAEVEFR-C[Oregon Green]KK-OH as substrate incubated for 3 hrs by fluorescence polarization
Measurement kind: IC50

Query: What value of IC50 on Beta-secretase 1 (Homo sapiens, UniProt P56817) does "C[C@H]1C[C@H]2CSC(N)=N[C@@]2(c2ncc(NC(=O)c3ccc(OC(F)F)cn3)s2)CO1" have?
Reply: > 100 µM

###

Target: Beta-secretase 1 (Cricetulus griseus)
Sequence (G3IAK4 whole entry, the tested form may be a part): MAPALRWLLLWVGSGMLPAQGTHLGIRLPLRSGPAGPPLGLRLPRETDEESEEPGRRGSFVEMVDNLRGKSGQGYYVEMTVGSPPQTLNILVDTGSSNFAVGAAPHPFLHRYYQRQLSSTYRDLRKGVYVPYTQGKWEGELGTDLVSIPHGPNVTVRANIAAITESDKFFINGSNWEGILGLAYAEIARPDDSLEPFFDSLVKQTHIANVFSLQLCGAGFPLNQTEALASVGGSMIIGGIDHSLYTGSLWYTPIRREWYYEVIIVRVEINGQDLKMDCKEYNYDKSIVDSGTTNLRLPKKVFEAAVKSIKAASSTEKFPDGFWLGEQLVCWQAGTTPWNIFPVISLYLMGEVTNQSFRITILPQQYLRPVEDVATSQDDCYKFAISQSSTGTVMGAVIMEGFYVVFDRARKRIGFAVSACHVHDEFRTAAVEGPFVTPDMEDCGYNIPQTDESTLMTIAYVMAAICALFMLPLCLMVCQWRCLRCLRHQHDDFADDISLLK
Assay: Inhibition of BACE1 in CHO cells expressing human APP assessed as reduction in amyloidbeta (1 to 40 residues) level incubated for 24 hrs by immunoassay method
Measurement kind: pIC50
When answering, recall that pIC50 equals minus log10 of the concentration in mol/L, and write that number alone.

Query: Form field: reported pIC50 of "C[C@]1(c2nc(NC(=O)c3ncc(C#N)cc3Cl)ccc2F)N=C(N)OCC1(F)F"
Reply: 8.10

###

Target: Beta-secretase 2 (Homo sapiens)
Sequence (Q9Y5Z0 whole entry): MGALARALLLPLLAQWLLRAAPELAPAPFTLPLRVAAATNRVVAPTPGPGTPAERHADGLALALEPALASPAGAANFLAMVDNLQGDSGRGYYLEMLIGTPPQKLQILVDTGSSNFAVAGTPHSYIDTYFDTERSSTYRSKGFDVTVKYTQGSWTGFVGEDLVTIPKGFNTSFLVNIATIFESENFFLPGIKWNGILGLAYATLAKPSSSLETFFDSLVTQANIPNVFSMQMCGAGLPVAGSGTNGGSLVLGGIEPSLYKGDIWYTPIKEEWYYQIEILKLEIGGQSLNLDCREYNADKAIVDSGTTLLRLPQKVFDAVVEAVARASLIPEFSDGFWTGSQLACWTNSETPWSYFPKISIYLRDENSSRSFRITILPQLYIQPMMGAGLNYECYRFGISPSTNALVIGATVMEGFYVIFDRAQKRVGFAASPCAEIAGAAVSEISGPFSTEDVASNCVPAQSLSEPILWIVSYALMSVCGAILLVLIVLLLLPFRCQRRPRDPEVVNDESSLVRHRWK
Assay: Inhibition of BACE2 (unknown origin)
// reported pIC50 per item
Field pIC50 (float): negative decimal logarithm of the concentration in molar.

Sample records with pIC50:
>>> observed_measurement("C[C@@]1(c2cc(NC(=O)c3ccc(C#N)cc3)ccc2F)Cn2cnc(C(F)F)c2C(N)=N1")
7.80
>>> observed_measurement("C[C@@]1(c2cc(NC(=O)c3cnc(OCF)cn3)ccc2F)C[C@@H](C(F)F)SC(N)=N1")
9.72
>>> observed_measurement("N#Cc1ccc(C(=O)Nc2ccc(F)c([C@]34COC[C@H]3n3cccc3C(N)=N4)c2)nc1")
6.92

Query: pIC50 lookup needed for "C[C@@]1(c2cc(NC(=O)c3ccc(OCF)cn3)ccc2F)C[C@@H](C(F)(F)F)SC(N)=N1" , thanks.
Reply: 9.00

Query: Name the reported pIC50 value associated with the compound "CC(F)(F)[C@@H]1C[C@@](C)(c2cc(NC(=O)c3ccc(OCF)cn3)ccc2F)N=C(N)S1"
Reply: 9.30

Query: Which value of pIC50 has been reported for "NC1=N[C@@]2(c3cc(NC(=O)c4ccc(C(F)(F)F)cn4)ccc3F)CO[C@H](C(F)(F)F)[C@H]2CO1" in the records?
Reply: 6.22

###

Assay: Brain to plasma partition coefficient, Kp of the compound in Sprague Dawley rat at 10 mg/kg, po
Type: ADME, organism-based
Measurement kind: Kp
Hey, just send me the number, nothing else.

Query: // returns reported Kp for input "Cc1cc(C#N)cnc1C(=O)Nc1ccc(F)c([C@@]2(C)N=C(N)[C@@](C)(F)CC2(F)F)c1"
Reply: 0.5

###

Below: a set of entries, each annotated with reported pIC50.
Target: UniProt P56817
Assay: Inhibition of human BACE1 expressed in Escherichia coli preincubated for 1 hr followed by Mca-Ser-Glu-Val-Asn-Leu-Asp-Ala-Glu-Phe-Lys(Dnp)-OH substrate addition by spectroflurimetric assay
Expect pIC50 as a plain number equal to -log10 of the molar concentration.

Query: Which pIC50 reading was recorded for the compound "C[C@]1(c2cc(NC(=O)c3ccc(C#N)cn3)ccc2F)N=C(N)C[C@H]1C(F)(F)F" ?
Reply: 6.74

Query: For the compound shown here, "C[C@@]1(c2cc(NC(=O)c3ccc(C#N)cn3)ccc2F)CCC(N)=N1" , give the reported pIC50.
Reply: 5.98

Query: Value lookup for pIC50; key = "NC1=N[C@@]2(COc3ccc(NC(=O)c4cnc(OCC(F)(F)F)cn4)cc32)[C@H](C(F)(F)F)C1"
Reply: 5.15

###

Target: Beta-secretase 1 (Homo sapiens, UniProt P56817)
Test: Inhibition of BACE1 (unknown origin)
Just a reminder that ties go to class 0: only IC50 strictly below 6 nM counts as class 1.

Consider the worked cases shown below.
>>> class_name("Cn1cc2n(c1=O)C[C@@](C)(c1cc(NC(=O)c3ccc(C#N)cn3)ccc1F)N=C2N")
"class 1"
>>> class_name("C[C@@]1(c2cc(NC(=O)c3ccc(C#N)cc3)ccc2F)Cn2cnc(C(F)F)c2C(N)=N1")
"class 1"
>>> class_name("N#Cc1ccc(C(=O)Nc2ccc(F)c([C@]34COC[C@H]3n3cccc3C(N)=N4)c2)nc1")
"class 0"
>>> class_name("C[C@@]1(c2cc(NC(=O)c3ccc(OCF)cn3)ccc2F)C[C@@H](C(F)(F)F)SC(N)=N1")
"class 1"

Query: Report whether reported IC50 is lower than 6 nM (strictly) for "NC1=N[C@@]2(c3cc(NC(=O)c4ccc(C(F)(F)F)cn4)ccc3F)CO[C@H](C(F)(F)F)[C@H]2CO1"
Reply: class 0

Query: In plain terms, does "C[C@@]1(c2cc(NC(=O)c3cnc(OCF)cn3)ccc2F)C[C@@H](C(F)F)SC(N)=N1" come in under 6 nM for IC50?
Reply: class 0

###

Molecular target: Voltage-gated inwardly rectifying potassium channel KCNH2 (Homo sapiens, UniProt Q12809)
Sequence (Q12809 whole entry): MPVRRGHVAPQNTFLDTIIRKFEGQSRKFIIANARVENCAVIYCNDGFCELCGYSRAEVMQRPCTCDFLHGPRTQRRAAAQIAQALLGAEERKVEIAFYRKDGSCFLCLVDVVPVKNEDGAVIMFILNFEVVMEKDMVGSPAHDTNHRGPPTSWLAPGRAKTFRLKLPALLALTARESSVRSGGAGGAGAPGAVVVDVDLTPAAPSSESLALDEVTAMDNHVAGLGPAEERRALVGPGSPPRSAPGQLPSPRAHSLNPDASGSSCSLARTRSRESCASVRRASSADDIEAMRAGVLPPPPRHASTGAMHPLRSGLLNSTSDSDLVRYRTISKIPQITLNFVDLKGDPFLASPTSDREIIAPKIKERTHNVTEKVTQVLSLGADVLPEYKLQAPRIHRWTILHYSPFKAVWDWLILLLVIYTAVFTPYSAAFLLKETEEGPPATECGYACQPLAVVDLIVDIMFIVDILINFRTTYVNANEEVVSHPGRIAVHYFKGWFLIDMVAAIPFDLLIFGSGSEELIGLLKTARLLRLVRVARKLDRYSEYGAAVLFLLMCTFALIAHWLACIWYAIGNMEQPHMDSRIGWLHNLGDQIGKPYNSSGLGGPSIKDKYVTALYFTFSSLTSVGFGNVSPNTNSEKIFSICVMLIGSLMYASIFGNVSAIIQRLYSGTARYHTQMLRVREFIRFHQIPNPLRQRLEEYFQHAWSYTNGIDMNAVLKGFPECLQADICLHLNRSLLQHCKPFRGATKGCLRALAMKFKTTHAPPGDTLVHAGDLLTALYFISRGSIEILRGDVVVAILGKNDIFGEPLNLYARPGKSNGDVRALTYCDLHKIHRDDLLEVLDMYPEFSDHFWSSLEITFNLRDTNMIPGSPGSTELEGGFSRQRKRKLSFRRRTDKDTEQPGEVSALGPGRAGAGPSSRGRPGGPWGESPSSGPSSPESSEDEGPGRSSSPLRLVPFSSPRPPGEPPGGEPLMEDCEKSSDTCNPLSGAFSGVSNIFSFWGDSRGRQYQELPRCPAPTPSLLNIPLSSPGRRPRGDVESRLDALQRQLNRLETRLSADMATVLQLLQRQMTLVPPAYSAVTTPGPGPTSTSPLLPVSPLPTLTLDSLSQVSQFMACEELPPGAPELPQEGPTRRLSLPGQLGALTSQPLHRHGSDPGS
Test: Inhibition of human ERG expressed in CHO cells at holding potential of -80 mV by patch clamp method
Measurement kind: pIC50
Formally, pIC50 is defined as -log10 of the concentration c, with c in mol/L.

Query: # query: pIC50 of entry "C[C@H]1C[C@H]2CSC(N)=N[C@@]2(c2ncc(NC(=O)c3ccc(OC(F)F)cn3)s2)CO1"
Reply: 4.92

###

Target: Beta-secretase 1 (Homo sapiens, UniProt P56817)
Assay: Inhibition of BACE1 (unknown origin) by cell-based assay
Measurement kind: IC50

Examples with answers:
>>> observed_measurement("N#Cc1ccc(C(=O)Nc2ccc(F)c([C@]34COC[C@H]3n3cccc3C(N)=N4)c2)nc1")
"15.5 nM"
>>> observed_measurement("Cn1cc2n(c1=O)C[C@@](C)(c1cc(NC(=O)c3ccc(C#N)cn3)ccc1F)N=C2N")
"13.2 nM"
>>> observed_measurement("C[C@@]1(c2cc(NC(=O)c3ccc(C#N)cc3)ccc2F)Cn2cnc(C(F)F)c2C(N)=N1")
"0.95 nM"
>>> observed_measurement("NC1=N[C@@]2(c3cc(NC(=O)c4ccc(C(F)(F)F)cn4)ccc3F)CO[C@H](C(F)(F)F)[C@H]2CO1")
"1.03 nM"

Then this compound:
Query: // query IC50 value for entry C[C@H]1OC[C@]2(c3cc(NC(=O)c4cnc(C(F)F)cn4)ccc3F)N=C(N)SC[C@H]12 [ELENBECESTAT]
Reply: 7 nM
